Tested on: Candida albicans
METHOD DESCRIPTION: MIC (Minimum Inhibitory Concentration)
Format: cell-based
RUN CONDITIONS: read-out: MIC values, Candida albicans A 3194
// values below are reported MIC
MEASURED QUANTITY: MIC (µg/mL)

• [C-]#[N+]C(=C1CCCCCC1)S(=O)(=O)c1ccc(C)cc1 [Example 18a] = 1.5
• [C-]#[N+]C(C1=CCCCCC1)S(=O)(=O)c1ccc(C)cc1 (stereo not shown) [Example 18b] = 25
• [C-]#[N+]C(=C1CCCC1)S(=O)(=O)c1ccc(C)cc1 = 0.8
• [C-]#[N+]C(=C1CCCCC1)S(=O)(=O)c1ccc(C)cc1 = 6

====

// values below are reported MIC
System: Trichophyton mentagrophytus
METHOD DESCRIPTION: MIC (Minimum Inhibitory Concentration)
Type: cell-based
RUN CONDITIONS: Trichophyton mentagrophytus R 177, read-out: MIC values
MEASURED QUANTITY: MIC

* [C-]#[N+]C(=C(C)C)S(=O)(=O)c1ccc(C)cc1 | 6 µg/mL
* [C-]#[N+]C(=CC(C)(C)C)S(=O)(=O)c1ccc(C)cc1 | 6 µg/mL
* [C-]#[N+]C(=C(C)c1ccc([N+](=O)[O-])cc1)S(=O)(=O)c1ccc(C)cc1 | 6 µg/mL

====

// values below are reported MIC
Tested on: Candida albicans
METHOD DESCRIPTION: MIC (Minimum Inhibitory Concentration)
Assay type: cell-based
RUN CONDITIONS: Candida albicans A 3169, read-out: MIC values
MEASURED QUANTITY: MIC

- [C-]#[N+]C(=C(C)c1ccccc1)S(=O)(=O)c1ccc(C)cc1 [Example 12]: 6 mg/L
- [C-]#[N+]C(C1=CCOCC1)S(=O)(=O)c1ccc(C)cc1 (stereo not drawn) [Example 14b]: 6 mg/L
- [C-]#[N+]C(=Cc1cccn1C)S(=O)(=O)c1ccc(C)cc1 [Example 30]: 6 mg/L

====

System: Trichophyton rubrum
METHOD DESCRIPTION: MIC (Minimum Inhibitory Concentration)
Format: cell-based
RUN CONDITIONS: Trichophyton rubrum 494-62, read-out: MIC values
MEASURED QUANTITY: MIC

* [C-]#[N+]C(=C(CCCC)c1ccccc1)S(=O)(=O)c1ccc(C)cc1 | > 100 µg/mL
* [C-]#[N+]C(=Cc1cccn1C)S(=O)(=O)c1ccc(C)cc1 | > 100 µg/mL
* [C-]#[N+]C(=Cc1ccco1)S(=O)(=O)c1ccc(C)cc1 | 0.1 µg/mL

====

// values below are reported MIC
Test system: Trichophyton tonsurans
METHOD DESCRIPTION: MIC (Minimum Inhibitory Concentration)
Assay type: cell-based
RUN CONDITIONS: Trichophyton tonsurans 561-50; read-out: MIC values
MEASURED QUANTITY: MIC

* [C-]#[N+]C(=Cc1ccc(OC)cc1)S(=O)(=O)c1ccc(C)cc1 | 0.8 µg/mL
* [C-]#[N+]C(=C(C)c1ccc([N+](=O)[O-])cc1)S(=O)(=O)c1ccc(C)cc1 | 1.5 µg/mL
* [C-]#[N+]C(=Cc1ccc(Cl)cc1)S(=O)(=O)c1ccc(C)cc1 | 6 µg/mL
* [C-]#[N+]C(=C(C)C)S(=O)(=O)c1ccc(C)cc1 | < 0.1 µg/mL

====

System: Trichophyton mentagrophytus
METHOD DESCRIPTION: MIC (Minimum Inhibitory Concentration)
Assay type: cell-based
RUN CONDITIONS: Trichophyton mentagrophytus 421-67, read-out: MIC values
// values below are reported MIC
MEASURED QUANTITY: MIC (mg/L)

• [C-]#[N+]C(=Cc1ccccc1)S(=O)(=O)c1ccc(C)cc1 = 1.5
• [C-]#[N+]C(=C(C)c1ccco1)S(=O)(=O)c1ccc(C)cc1 = 3
• Clc1ccc(COC(Cn2ccnc2)c2ccc(Cl)cc2Cl)c(Cl)c1 (stereo not shown) [miconazole, reference compound] = 0.2

====

System: Candida albicans
METHOD DESCRIPTION: MIC (Minimum Inhibitory Concentration)
Format: cell-based
RUN CONDITIONS: read-out: MIC values, Candida albicans A 3168
MEASURED QUANTITY: MIC (µg/mL)

- [C-]#[N+]C(=C1CCCCC1)S(=O)(=O)c1ccccc1: 6
- [C-]#[N+]C(C1=CCCCCC1)S(=O)(=O)c1ccc(C)cc1 (stereo not drawn) [Example 18b]: 6
- [C-]#[N+]C(=C1CCCCCC1)S(=O)(=O)c1ccc(C)cc1 [Example 18a]: 0.75

====

System: Candida albicans
METHOD DESCRIPTION: MIC (Minimum Inhibitory Concentration)
Type: cell-based
RUN CONDITIONS: Candida albicans A 3167, read-out: MIC values
Description: In addition they may be used for combatting plant diseases, in particular as fungicides. A list of MIC (Minimum Inhibitory Concentration) values for a number of microorganisms is listed herebelow. […]
MEASURED QUANTITY: log10 MIC (log10 of the value in µg/mL)

- [C-]#[N+]C(=C(C)CC)S(=O)(=O)c1ccc(C)cc1 [Example 27a]: -0.70
- [C-]#[N+]C(=Cc1ccc(OC)cc1)S(=O)(=O)c1ccc(C)cc1 [Example 23]: 0.18
- [C-]#[N+]C(C(C)=CC)S(=O)(=O)c1ccc(C)cc1 (centres unmarked) [Example 27b]: -0.40
- [C-]#[N+]C(=Cc1ccccc1)S(=O)(=O)c1ccc(C)cc1 [Example 1]: 1.40
- [C-]#[N+]C(=Cc1ccc(Cl)cc1)S(=O)(=O)c1ccc(C)cc1 [Example 11]: 0.18
- [C-]#[N+]C(=CC(C)(C)C)S(=O)(=O)c1ccc(C)cc1 [Example 4]: 1.70
- [C-]#[N+]C(=CCCC)S(=O)(=O)c1ccc(C)cc1 [Example 24]: 1.70
